Reported inhibition is given for each of the following compounds.
Target: SARS-CoV-2 Main Protease (SARS-CoV-2) (UniProt P0DTD1)
Conditions: 50.0 µM

Compound	inhibition, %
Cc1ccncc1NC(=O)Cc1cccc(CO)c1	6.05
Cc1cnc(CC(=O)Nc2cccnc2)o1	-9.91
C=CC(=O)N(c1ccc(C(F)(F)F)cc1)C(C(=O)NCCc1cccc(F)c1)c1cncc(Cl)c1 (centres undefined)	68.2
Cc1ccc(O)cc1NC(=O)C(C)(C)c1cccc(F)c1	-11
C=CC(=O)N(c1ccc(C(C)OC)cc1)C(C(=O)Nc1ccccc1Br)c1cccnc1 (centres undefined)	9.73
COc1ccc2c(c1)C(C(=O)Nc1cnccc1-n1cccn1)CCC2 (centres undefined)	7.3
O=C(Cc1ccsc1)N1CCN(c2cc(-c3cccs3)n[nH]2)CC1	42.2
Cc1ccnc2[nH]c(CC3CCN(C(=O)CCl)CC3)nc12	18.1
C=CC(=O)N(c1ccc(C(F)(F)F)cc1)C(C(=O)NCCc1cccc(F)c1)c1cncc(C)c1 (centres undefined)	63
C[C@@H](Cn1ccc(-c2ccc(C#N)c(Cl)c2)n1)NC(=O)c1cc([C@@H](C)O)[nH]n1 (stereo in doubt)	-11.9
O=C(c1cc(=O)[nH]c2ccccc12)N1CCN(c2ccc(F)cc2)CC1	78.5
C[C@@H]1CC[C@@H](c2ccoc2)N2C1CC[C@@]1(CS[C@@]3(CC[C@H]4[C@H](C)CC[C@@H](c5ccoc5)N4[C@@H]3O)C1)[C@@H]2O (stereo in doubt)	-23.4
Cc1ccncc1NC(=O)CCc1ccn[nH]1	-26.3
Cc1ccncc1NC(=O)C(C)c1cccc(C#N)c1 (centres undefined)	61.4
O=C(Cc1cccc(Cl)c1)Nc1cnccc1O	-2.06
N#Cc1ccc(Nc2ccc(NC(=O)Nc3cccnc3)cc2)nc1	-3.7
CCCN(CC1COc2ccccc2O1)C(=O)c1cc(=O)[nH]c2cc(F)ccc12 (centres undefined)	8.33
C=CC(=O)N(c1ccc(C(C)(C)C)cc1)C(C(=O)NC1CC(C(=O)OC)C1)c1cccnc1 (centres undefined)	4.24
O=C(Cc1cccc(Cl)c1)Nc1cnns1	3.34
Cn1cnnc1CNC(=O)Nc1cc(C(F)(F)F)c[nH]c1=O	14.8
O=C(Cn1nnc2ccccc21)N(Cc1ccsc1)c1ccc(-c2ccccc2)cc1	39.1
C=CC(=O)N1CCN(S(C)(=O)=O)CC1c1ccccc1 (centres undefined)	2.89
O=C(CCl)N1CCN(S(=O)(=O)c2ccc(Cc3cccc4ccccc34)cc2)CC1	29.9
C=CC(=O)N(c1ccc(C2(C)CC2)cc1)C(C(=O)Nc1cccc(CC)c1)c1cccnc1 (centres undefined)	21
Cc1csc(C(=O)N/N=C/c2cccnc2)c1N	-19.8
Cn1cc(NC(=O)Nc2ccccn2)c2ccccc2c1=O	-0.727
COc1ccc2c(c1F)NC(=O)C2=O	3.02
C=CC(=O)N(c1ccc(N(C)C)c(C)c1)C(C(=O)Nc1ccc(OC)cc1)c1cccnc1 (centres undefined)	7.05
O=C(NCc1cccnn1)Nc1cccc(OCCN2CCOCC2)c1	1.22
O=C(Cc1c[nH]c2ncccc12)N1CCC(N2CCCS2(=O)=O)CC1	-1.92
COc1ccc(OC)c(CCNC(=O)Nc2cn(CC(C)C)c(=O)c3ccccc23)c1	2.5
Cc1cc(C)cc(NC(=O)Cc2cnn(C)c2C)c1	-5.28
C=CC(=O)N(c1ccc(C2(C)CC2)cc1)C(C(=O)NC(C)(C)C)c1cccnc1 (centres undefined)	-13.5
C=CC(=O)N(c1ccc2c(c1)C=CCCC2)C(C(=O)NC(C)(C)C)c1cccnc1 (centres undefined)	25.9
Cc1ccncc1NC(=O)C(C)Cc1ccccc1 (centres undefined)	-128
O=C(Nc1cccnc1)Nc1cc(O)cc(Cl)c1	21.2
C=CC(=O)N(C1COC2(CCC2)C1)C(C(=O)NC(C)(C)C)c1cccnc1 (centres undefined)	13.4
CNc1ccc(N(Cc2ccsc2)C(=O)Cn2nnc3ccccc32)cc1	82.6
O=C(Nc1ccc([N+](=O)[O-])cc1)c1cc(Cl)ccc1O	-15.6
N#Cc1cc(Cl)cc(NC(=O)Nc2cccnc2)c1	43.9
Cc1cccc(NC(=O)C(C#N)C(=O)CC(C)C)c1 (centres undefined)	-0.258
O=S(=O)(Cc1ccccc1)Nc1cnccc1N1CCCC1	1.38
CC(C)Cn1cc(NC(=O)NCc2ccc3c(c2)OCO3)c2ccccc2c1=O	11.2
CNCc1c[nH]c2ccc(F)cc12	32.7

Source of measurements: the COVID Moonshot data (paper PMC11187573)
